The reported numbers originate from patent US20140064053A1.

- assay.comment: Two-photon absorption cross-sectional area by the Z scanning method
- Format: physicochemical
- assay.setup: measurement wavelength 405 nm; chloroform solution, about 1×10^−3 mol/l; 1 GM = 1 × 10^−50 cm^4 s molecule^−1 photon^−1
experimental.readout: Two-Photon Absorption Cross-Sectional Area (GM)
One number for each entry, in GM.

Use these answered entries as a reference point.
compound	observed.value
CCCCC(CC)COc1ccc(C(=O)c2ccc(-c3ccc(-c4ccc(-c5ccc(C#N)cc5)cc4)cc3)cc2)cc1 (centres unmarked)	900
COc1cc(-c2ccc(-c3ccc(C(=O)c4ccc(OCCOCCOC(C)=O)c(OCCOCCOC(C)=O)c4)cc3)c(OC)c2)ccc1-c1ccc(C(=O)c2ccc(OCCOCCOC(C)=O)c(OCCOCCOC(C)=O)c2)cc1	2000

For each of the compounds below, note its Two-Photon Absorption Cross-Sectional Area.
1. COCCOCCOCCOCCOCCOc1ccc(C(=O)c2ccc(-c3ccc(-c4ccc(-c5ccc(C#N)cc5)cc4)cc3)cc2)cc1
2. N#Cc1ccc(-c2ccc(-c3ccc(-c4ccc(C(=O)c5ccccc5)cc4)cc3)cc2)cc1 [Compound R-1, reference compound]
3. CCCCC(CC)COc1ccc(C(=O)c2ccc(-c3ccc(-c4ccc(-c5ccc(C#N)cc5)c(OC)c4)cc3OC)cc2)cc1 (centres unmarked)

Output:
1. 860
2. 1700
3. 1140

* * *

- assay.comment: Evaluation of solubility of two-photon absorption compound in dichloromethane
- Format: physicochemical
- assay.setup: invention compounds compared with Comparative Compound R-1
experimental.readout: Solubility (in words)

Use these answered entries as a reference point.
compound	observed.value
CCCCC(CC)COc1ccc(C(=O)c2ccc(-c3ccc(-c4ccc(-c5ccc(C#N)cc5)c(OC)c4)cc3OC)cc2)cc1 (centres unmarked)	high solubility
N#Cc1ccc(-c2ccc(-c3ccc(-c4ccc(C(=O)c5ccccc5)cc4)cc3)cc2)cc1 [Compound R-1, reference compound]	low
COc1cc(-c2ccc(-c3ccc(C(=O)c4ccc(OCCOCCOC(C)=O)c(OCCOCCOC(C)=O)c4)cc3)c(OC)c2)ccc1-c1ccc(C(=O)c2ccc(OCCOCCOC(C)=O)c(OCCOCCOC(C)=O)c2)cc1	high solubility
CCCCC(CC)COc1ccc(C(=O)c2ccc(-c3ccc(-c4ccc(-c5ccc(C#N)cc5)cc4)cc3)cc2)cc1 (centres unmarked)	high solubility

Now let's try a different one.
Briefly, Solubility (in words) measured for `COCCOCCOCCOCCOCCOc1ccc(C(=O)c2ccc(-c3ccc(-c4ccc(-c5ccc(C#N)cc5)cc4)cc3)cc2)cc1` : high solubility
